Data origin: PubChem BioAssay (NCI)

The entries below come with measured growth values attached.
System: A498 renal
Experiment: NCI-60 one-dose screen, 48 h (100 = growth as untreated, 0 = no growth, -100 = all killed)
Conditions: 10 µM unless noted
Protocol: Growth inhibition of the A498 human tumor cell line is measured as a screen for anti-cancer activity. Cells are grown in 96 well plates and exposed to the test compound for 48 hours. Compounds are tested at a single concentration, which is 10^-5 M for most compounds. The reported endpoint is percent growth (GI% or GIPRCNT), where numbers from 0 - 100% represent growth inhibition, and numbers from -100% - 0 represent cell death. For example, a value of 40 represents 60% growth inhibition. […]
This is part of a sample that, as a whole, favours compounds with a hit. Of some 83,000 tested, about 20% had one in any assay.
Kindly provide the numeric value in % only, without the unit symbol.

Here are 2 molecules together with their reported answers.
[[record]]
molecule = "C=C(C)[C@@H]1C[C@@H]2Cc3cc(Cl)ccc3N1O2"
study_target = "A498 renal"
reported_result = 96.3

[[record]]
molecule = "COc1ccc(C(=O)N2NC(=O)/C(=C/c3cn(-c4ccccc4)nc3-c3ccccc3)N=C2c2ccccc2)cc1"
study_target = "A498 renal"
reported_result = 77.6


# input molecule: CC(C)(C)n1cc(-c2ccnc(NCCCNS(=O)(=O)c3ccc(Cl)cc3)c2)c(-c2cccc(O)c2)n1 ; wanted: its growth
-8.44

Likewise for Cc1ccc2[nH]c(=O)c3c(c2c1)Oc1ncn2nc(-c4ccco4)nc2c1C3c1ccc(Cl)cc1 (stereo not given) ?
96.8

Likewise for O=[N+]([O-])c1ccc(OCCCOc2ccccc2)cc1 ?
102

Likewise for Nc1nc(=O)c2ccccc2s1 ?
131

Likewise for c1cc2[nH]ncc2cc1-c1nc2ccc3[nH]ncc3c2c2c1CCC2 ?
-3.31

Likewise for COC(=O)c1cc(=O)nc(N/N=C/c2ccco2)s1 ?
99.5

Likewise for Cc1ccc(-c2nc(C(Cl)Cl)n3nc(-c4ccccc4)cc3n2)cc1 ?
77.8

Likewise for C=C1CCC2C3(C)COC(c4c(OC)cccc4OC)OC3CCC2(C)C1C/C=C1/C(=O)OCC1O (stereo not given) ?
102

###

tested on: HOP-62 NSCLC; experiment: NCI-60 one-dose screen, 48 h; details: 10 µM unless noted
The panel holds about 83,000 compounds, 20% with a hit somewhere; the sample as a whole holds those more often. The source made the active and inactive calls. The calls were made as follows: active = growth percent below 10; inactive = the rest.
Select the correct class. Options are t for active, f for inactive and nothing else.

[[record]]
compound = "COc1cc(-c2nn(-c3cccc(NC(=O)c4ccc(N5CCOCC5)c(C(F)(F)F)c4)c3)cc2-c2ccncc2)ccc1Cl"
assigned_label = "f"

[[record]]
compound = "CC(C)(C)N1CCC1C(N)=O (stereo not given)"
assigned_label = "f"

[[record]]
compound = "COc1cccc(/C=C2\\Oc3cc(OCCCN4CCCC4)ccc3C2=O)c1OC"
assigned_label = "f"

[[record]]
compound = "Cc1ccc(S(=O)(=O)NC(=O)n2cc(-c3ccncc3)c(-c3ccc(Cl)c(O)c3)n2)cc1"
assigned_label = "f"

[[record]]
compound = "COc1ccc(C(=O)N2NC(=O)/C(=C/c3ccc(Br)cc3)N=C2c2ccccc2)cc1"
assigned_label = "f"

[[record]]
compound = "NC(=N\\N=C/c1ccc(O)cc1)/C(N)=N\\N=C/c1ccc(O)cc1"
assigned_label = "f"

[[record]]
compound = "CCC(C)/C(=C\\C#N)NCCCN/C(=C/C#N)C(C)CC (stereo not given)"
assigned_label = "f"

[[record]]
compound = "CN(C)CCN1C(=O)c2ccc3c4c(ccc(c24)C1=O)C(=O)N(CCN=C=S)C3=O"
assigned_label = "t"

[[record]]
compound = "c1cc(C2=N[C@@H]3c4ccccc4C[C@@H]3O2)nc(C2=N[C@@H]3c4ccccc4C[C@@H]3O2)c1"
assigned_label = "f"

[[record]]
compound = "CC(=O)Oc1csc(N(C(C)=O)c2cc(C(=O)O)cc(C(=O)O)c2)n1"
assigned_label = "f"


Given CCCCCCCCN(CCCCCCCC)CCCCCCNc1cc(OC)cc2cccnc12 , state the outcome it received in this test.
f

Likewise for COc1cc(-c2nn(C(=O)NS(=O)(=O)c3ccccc3)cc2-c2ccncc2)ccc1Cl ?
f

Likewise for COc1ccc2c(c1)OC1=C(C(=O)OC1)C2c1cc(OC)c2c(c1)OCO2 (stereo not given) ?
f

Likewise for CCN(CC)CCCNc1nccc2ccc(Cl)cc12 ?
f

Likewise for CC1=NC2=CC=CC3=NC(C(Cl)(Cl)Cl)=NC(=N1)N23 ?
f

Likewise for Cc1[nH]c2ccc(F)cc2c1CCNC(=O)C1CCN(C(=O)c2ccccc2)CC1 ?
f

Likewise for CSc1nc2c(c(=O)[nH]1)C(c1ccc(C)cc1)C=C(C(=O)O)N2 (stereo not given) ?
f

Likewise for COc1ccc(-c2c(N)n[nH]c2-c2cc3c(c(OC)c2OC)OCO3)cc1 ?
f

Likewise for Fc1ccc(Nc2nc(NCCNc3ccnc4cc(Cl)ccc34)nc(N3CCOCC3)n2)cc1 ?
f

Likewise for COc1ccc(S(=O)(=O)Nc2cc(/C=C\c3cc(OC)c(OC)c(OC)c3)cc(OC)c2OC)cc1 ?
f

###

test system: LOX IMVI melanoma; test: NCI-60 one-dose screen, 48 h; conditions: 10 µM unless noted
Compounds without any hit were thinned out: in the full panel of roughly 83,000, 20% have a hit. The source made the active and inactive calls. How the source made its calls: active means growth percent below 10; inactive means the rest.
Select the correct class. Options are active, inactive and nothing else.

These solved cases illustrate the format of a correct answer.
[[record]]
compound = "C=C1CCC2C(C)(CO)C(O)CCC2(C)C1C/C=C1/C(=O)OCC1Oc1ccccc1C (stereo unspecified)"
study_target = "LOX IMVI melanoma"
assigned_label = "active"

[[record]]
compound = "COc1cc(NC(N)=NCCC(C)(C)Oc2ccc(C(F)(F)F)cc2)ncc1C#N"
study_target = "LOX IMVI melanoma"
assigned_label = "active"

[[record]]
compound = "CC(C)OC(=O)N1CCOCC1"
study_target = "LOX IMVI melanoma"
assigned_label = "inactive"

[[record]]
compound = "Clc1ccc(-c2nc3ccccc3s2)cc1Cl"
study_target = "LOX IMVI melanoma"
assigned_label = "inactive"

[[record]]
compound = "O=S(=O)(CC(O)(c1ccccc1)c1ccccc1)CC(O)(c1ccccc1)c1ccccc1"
study_target = "LOX IMVI melanoma"
assigned_label = "inactive"


Given O=C(Nc1ccc(NCCN2CCOCC2)nc1)c1ccc([N+](=O)[O-])cc1 , state the outcome it received in this test.
inactive

Likewise for Brc1cccc(-c2cc(-c3ccc4c(c3)OCCCO4)[nH]n2)c1 ?
inactive

Likewise for CCOC(=O)c1c(/N=C2\SC(=O)/C(=C\C(=O)OC)N2NC)sc2c1CCN(C(=O)OCC)C2 ?
inactive

Likewise for COc1cc(C2NN=C3c4ccccc4CCC32)cc(OC)c1OC (stereo unspecified) ?
inactive

Likewise for COc1ccc(/C=C2\Oc3cc(OCCCN4CCCC4)ccc3C2=O)cc1 ?
inactive

Likewise for O=C(Nc1cccc(-n2cc(-c3ccncc3)c(-c3ccc(Cl)c(O)c3)n2)c1)Nc1cc(C(F)(F)F)cc(C(F)(F)F)c1 ?
active

Likewise for OB(O)c1cccc(-c2nc3ccc4[nH]ncc4c3c3c2CCCC3)c1F ?
inactive

Likewise for O=C1CCCCC1(c1ccccc1)c1ccccc1 ?
inactive

Likewise for CCOC(=O)c1cc(C(=O)c2cc(OC)c(OC)c(OC)c2)n2c1ccc1ccccc12 ?
inactive

Likewise for O=[N+]([O-])c1cccc(-c2nc3sccn3c2-c2ccnc(NCCCNS(=O)(=O)c3ccc(C(F)(F)F)cc3)n2)c1 ?
inactive

###

The entries below come with measured growth values attached.
test system: SF-268 CNS; assay: NCI-60 one-dose screen, 48 h (100 = growth as untreated, 0 = no growth, -100 = all killed); conditions: 10 µM unless noted
Compounds without any hit were thinned out: in the full panel of roughly 83,000, 20% have a hit. Calls of active or inactive are those of the source. How the source made its calls: active means growth percent below 10; inactive means the rest.

Here are 4 compounds together with their reported answers.
[[record]]
compound = "CCOc1cc2c(Cl)ncnc2c(OCC)c1OCC"
reported_result = "33.9% (inactive)"

[[record]]
compound = "O=C(Nc1ccncc1)C(=O)c1cn(S(=O)(=O)c2ccc(Br)cc2)c2ccccc12"
reported_result = "52.2% (inactive)"

[[record]]
compound = "O=C(CN1CCN(c2cc3c(cc2F)c(=O)c(C(=O)N/N=C/c2ccccc2O)cn3C2CC2)CC1)N/N=C\\c1ccccc1O"
reported_result = "16.6% (inactive)"

[[record]]
compound = "O=c1[nH]c2ccc(Br)cc2c2c1C(c1ccc(Cl)cc1)c1c(ncn3nc(-c4ccco4)nc13)O2 (stereo not given)"
reported_result = "74.3% (inactive)"


# input compound: Nc1ncnc2c1c(-c1ccc(Oc3ccccc3)cc1)nn2C[C@@H]1SSC[C@@H]1O ; wanted: its growth
29.7% (inactive)

Likewise for O=c1c2sc3ncccc3c2nnn1-c1ccccc1 ?
102% (inactive)

Likewise for COc1cc(/C=C/C(=O)c2cccc(-n3cc(-c4cc(OC)c(OC)c(OC)c4)[nH]c3=O)c2)cc(OC)c1OC ?
20.9% (inactive)

Likewise for CCOC(=O)c1ccc(NC(=O)N2CC(C)OC(C)C2)cc1 (stereo not given) ?
106% (inactive)

Likewise for CCN1C(=O)N(CC)C2C1NN=c1s/c(=C\c3cccnc3)c(=O)n12 (stereo not given) ?
49.4% (inactive)

Likewise for Cc1ccc(S(=O)(=O)/C(=C\c2ccc(Cl)cc2)C(=O)c2ccccc2)cc1 ?
103% (inactive)
